Test system: KCC2 expression
Assay: Western blot of KCC2 in cultured human RTT neurons
Assay type: cell-based
Conditions: cultured ESC-derived human RTT neurons; Western blot
Procedure: Protein samples were collected from cultured brain slices or cultured neurons in 12-well format with RIPA lysis buffer (in mM: 150 NaCl, 25 Tris-HCl, 1 EDTA, 1% NP-40, 1% sodium deoxycholate, 0.1% SDS, with protein kinase inhibitor and protease inhibitor, pH adjusted to 7.6). A sonication step was applied to homogenize tissue and extract protein, followed by a 10 minute centrifugation at 4° C. […]
readout: concentration at which treatment significantly increases KCC2 expression (µM)
Record the value in µM, omitting the unit from your answer.

Case O=C(/C=C/C=C/c1ccc2c(c1)OCO2)N1CCCCC1 , KCC2 expression, concentration at which treatment significantly increases KCC2 expression recorded as 10

O=C(c1ccc(/C=C/c2n[nH]c3ccccc23)cc1)N1CCNCC1 tested on KCC2 expression gave concentration at which treatment significantly increases KCC2 expression: 0.1

Form: item O=C1Nc2cc(Br)ccc2/C1=C1/Nc2ccccc2/C1=N\O ; test system KCC2 expression; concentration at which treatment significantly increases KCC2 expression: 0.3

Item Oc1ccc(/C=C/c2cc(O)cc(O)c2)cc1 [Resveratrol, 3,5,4'-trihydroxy-trans-stilbene] ; assay system KCC2 expression; concentration at which treatment significantly increases KCC2 expression reported as 10
